The reported measurements were obtained from PubChem BioAssay AID624414.

biological target: Mucolipin-1 (Homo sapiens) (UniProt Q9GZU1); experiment: qHTS for Agonists of the Human Mucolipin Transient Receptor Potential 1 (TRPML1); conditions: TRPML1-expressing cells, Ca2+ dye fluorescence, FDSS; stronger effect = higher value; also: 0% is about no effect
Sequence (Q9GZU1 whole entry, looked up): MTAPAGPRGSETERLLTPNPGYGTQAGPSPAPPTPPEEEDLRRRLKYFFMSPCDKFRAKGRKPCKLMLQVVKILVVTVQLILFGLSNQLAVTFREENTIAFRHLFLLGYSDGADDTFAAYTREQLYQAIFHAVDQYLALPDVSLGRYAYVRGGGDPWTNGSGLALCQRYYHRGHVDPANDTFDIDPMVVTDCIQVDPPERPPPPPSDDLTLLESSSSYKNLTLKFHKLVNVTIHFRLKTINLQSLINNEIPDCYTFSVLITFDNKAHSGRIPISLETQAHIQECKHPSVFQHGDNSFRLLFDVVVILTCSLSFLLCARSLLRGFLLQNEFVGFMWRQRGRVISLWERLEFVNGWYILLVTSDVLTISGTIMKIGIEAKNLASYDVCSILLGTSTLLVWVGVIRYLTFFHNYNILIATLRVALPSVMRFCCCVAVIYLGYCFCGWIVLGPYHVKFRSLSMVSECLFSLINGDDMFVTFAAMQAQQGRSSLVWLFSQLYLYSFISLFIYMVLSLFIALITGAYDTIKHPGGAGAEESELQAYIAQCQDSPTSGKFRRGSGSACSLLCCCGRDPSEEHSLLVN
About 480 (0.12%) of roughly 410,000 compounds were called active. The sample holds actives, similar compounds and a random draw of the others, so the mix is not that of the screen.
ENDPOINT: activation (%)
Respond with the bare value in %.

- CCOC1=C2[C@@H](CN(S(=O)(=O)c3ccc(C)cc3)[C@H]2c2ccccc2F)[C@H]2C(=O)N(Cc3ccccc3)C(=O)[C@H]2C1: 1.29
- Cc1cc(C)c(/C=C2\C(=O)Nc3ccccc32)[nH]1: 92
- SCc1nc2ccc(Cl)cc2[nH]1: -0.507

I am curious: what activation value has been reported for "CN(CCC#N)c1ccc(C=O)cc1" ?
-0.222

Any idea what its activation is? The compound is O=C1CC(c2ccccc2)CC2=C1C(c1ccco1)n1nc(C(F)(F)F)nc1N2 (stereo not given)
-1.28
